Tested on: CLK1;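 also: KINOMEscan kinase panel screen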
Settings: concentration: 1 μM, replicates: in singlicate; n = 1
Quick rule for you: %Inh at 20% or higher means rule met, lower means rule not met.

INSERT INTO measurements (molecule, category_label) VALUES
  ('C[C@@H](Oc1cc(-n2cnc3ccc(NC(=O)NC(C)(C)C)cc32)sc1C(N)=O)c1ccccc1Cl [GSK346294]', 'rule not met'),
  ('O=C1NC(=O)C(N2CCc3ccccc32)=C1c1cccc(Cl)c1 [SB-408010]', 'rule not met'),
  ('Cc1c(Cn2c(C)nn3c(=O)cc(N4CCOC(C)C4)nc23)cccc1C(F)(F)F (centres unmarked) [GSK2344444]', 'rule met'),
  ('CCCCCc1nc2c(N)ncnc2n1CCCCC [SKF-97255]', 'rule met'),
  ('Fc1ccc(-c2ncn(CCCN3CCOCC3)c2-c2ccccn2)cc1 [SB-211742]', 'rule not met'),
  ('O=c1cc(N2CCOCC2)nc2n(Cc3cccc(F)c3)ccn12 [GSK2297430]', 'rule met');

Request: Check this molecule for %Inh at or above 20%: CNc1ncnc2[nH]ncc12 [SKF-18355]
Response: rule not met

Request: Check this molecule for %Inh at or above 20%: O=C(Nc1n[nH]c2cc(-c3cccc(F)c3)ccc12)C1CC1 [SB-735464]
Response: rule not met

Request: Check this molecule for %Inh at or above 20%: COc1ccc(COc2cc(-n3cnc4ccccc43)sc2C(N)=O)cc1 [GSK1024304]
Response: rule met

Request: Check this molecule for %Inh at or above 20%: Cn1ccc2ncnc(Oc3ccc(NC(=O)Nc4ccncc4)c(Cl)c3)c21
Response: rule not met
